Biological target: recombinant human MetAP2 (Homo sapiens, UniProt P50579)
Sequence (P50579 whole entry): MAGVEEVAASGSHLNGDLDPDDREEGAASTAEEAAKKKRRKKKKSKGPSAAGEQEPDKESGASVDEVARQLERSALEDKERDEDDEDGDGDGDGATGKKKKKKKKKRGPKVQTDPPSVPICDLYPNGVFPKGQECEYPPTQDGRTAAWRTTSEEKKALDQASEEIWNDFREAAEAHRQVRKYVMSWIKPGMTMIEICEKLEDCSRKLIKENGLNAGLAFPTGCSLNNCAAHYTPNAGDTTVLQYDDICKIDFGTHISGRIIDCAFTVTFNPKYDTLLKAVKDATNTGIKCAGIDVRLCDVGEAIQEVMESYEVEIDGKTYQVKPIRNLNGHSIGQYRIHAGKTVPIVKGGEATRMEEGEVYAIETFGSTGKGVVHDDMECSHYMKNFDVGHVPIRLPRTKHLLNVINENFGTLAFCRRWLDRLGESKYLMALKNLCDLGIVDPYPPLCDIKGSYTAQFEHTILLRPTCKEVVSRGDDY
Assay: Inhibition of recombinant human MetAP2 activity (MAS substrate, amino acid oxidase/Amplex red fluorescence)
Conditions: manganese enzyme, 30 minutes at 25° C., pH 7.5, 0.75 mM MAS substrate, 1% DMSO
assay metric: IC50

The following molecules have reported results that may help.
- smiles structure: "O=C(O)c1c(CS(=O)(=O)c2ccccc2)ccc2c1OCCc1occc1-2"
  target of assay: "recombinant human MetAP2 (Homo sapiens, UniProt P50579)"
  test result: "100 to 1000 nM"
- smiles structure: "CCN(CC)C/C=C\\c1ccccc1S(=O)(=O)Nc1ccc2c(c1C(=O)O)OCc1occc1-2"
  target of assay: "recombinant human MetAP2 (Homo sapiens, UniProt P50579)"
  test result: "< 100 nM"
- smiles structure: "CCN(CC)C/C=C\\c1cc(F)ccc1S(=O)(=O)Nc1ccc2c(oc(=O)c3occc32)c1C(=O)O"
  target of assay: "recombinant human MetAP2 (Homo sapiens, UniProt P50579)"
  test result: "< 100 nM"
- smiles structure: "CCN(CC)CCCc1cc(F)ccc1S(=O)(=O)Nc1ccc2c(c1C(=O)O)OCc1occc1-2"
  target of assay: "recombinant human MetAP2 (Homo sapiens, UniProt P50579)"
  test result: "< 100 nM"
- smiles structure: "CCN(CC)C/C=C\\c1cc(F)ccc1S(=O)(=O)Nc1ccc2c(c1C(=O)O)OCCc1occc1-2"
  target of assay: "recombinant human MetAP2 (Homo sapiens, UniProt P50579)"
  test result: "< 100 nM"

Now examine the next entry.
With recombinant human MetAP2 (Homo sapiens, UniProt P50579) as the test system, `CCN(CC)C/C=C\c1cc(F)ccc1S(=O)(=O)Nc1ccc2c([nH]c(=O)c3occc32)c1C(=O)O` showed IC50 of < 100 nM

----------
Target: recombinant human MetAP2 (Homo sapiens)
Test: Inhibition of recombinant human MetAP2 activity (MAS substrate, amino acid oxidase/Amplex red fluorescence)
Details: manganese enzyme, 30 minutes at 25° C., pH 7.5, 0.75 mM MAS substrate, 1% DMSO
pIC50: −log10 of the molar value.
assay metric: pIC50

- molecule: "O=C(O)c1c(NS(=O)(=O)c2ccc(F)cc2/C=C\\CN2CCC2)ccc2c1OCc1occc1-2"
  target of assay: "recombinant human MetAP2 (Homo sapiens)"
  test result: "> 7.00"

With recombinant human MetAP2 (Homo sapiens) as the test system, CCN(CC)C/C=C\c1cc(F)ccc1S(=O)(=O)Cc1ccc2c(c1C(=O)O)OC(C)c1occc1-2 (racemic) [Example 15] showed pIC50 of > 7.00

With recombinant human MetAP2 (Homo sapiens) as the test system, C[C@H]1Oc2c(ccc(CS(=O)(=O)c3ccccc3)c2C(=O)O)-c2ccoc21 (stereo in doubt) showed pIC50 of > 7.00

With recombinant human MetAP2 (Homo sapiens) as the test system, `CCN(CC)CCCc1cc(F)ccc1S(=O)(=O)Nc1ccc2c(ncc3occc32)c1C(=O)O` showed pIC50 of > 7.00

With recombinant human MetAP2 (Homo sapiens) as the test system, `O=C(O)c1c(NS(=O)(=O)c2ccc(F)cc2/C=C\CN2CCOCC2)ccc2c1OCc1occc1-2` showed pIC50 of > 7.00

With recombinant human MetAP2 (Homo sapiens) as the test system, CCN(CC)C/C=C\c1cc(F)ccc1S(=O)(=O)Cc1ccc2c(c1C(=O)O)OC(C)c1occc1-2 (single isomer, unassigned) [Example 18A] showed pIC50 of > 7.00

With recombinant human MetAP2 (Homo sapiens) as the test system, `O=C(O)c1c(CS(=O)(=O)c2ccccc2)ccc2c1ncc1occc12` showed pIC50 of 6.00 to 7.00
